Sourced from paper PMC10301896

Measurement Description: in vivo
Details: male, albino, rabbit, in vivo, po, 150 mg/kg, AUC0–6h, TC 150 mg/kg orally; control rabbits
Where a name gives a salt, the structure may show the parent alone.
Outcome Measure: AUC(0-t) (ng·h/mL)
Answers are plain numbers, in ng·h/mL.

**Query** AUC(0-t) for CN(C)[C@@H]1C(O)=C(C(N)=O)C(=O)[C@@]2(O)C(O)=C3C(=O)c4c(O)cccc4[C@@](C)(O)[C@H]3C[C@@H]12 [TC, tetracycline hydrochloride] ?
**Result** 2540

###

Measurement Description: in vivo
Details: male, albino, rabbit, iv, 10 mg/kg
Where a name gives a salt, the structure may show the parent alone.
Outcome Measure: AUC(0-t) (ng·h/mL)
Give bare numbers, in ng·h/mL.

**Query** What does the data say about its AUC(0-t)? Entry: CN(C)[C@@H]1C(O)=C(C(N)=O)C(=O)[C@@]2(O)C(O)=C3C(=O)c4c(O)cccc4[C@@](C)(O)[C@H]3C[C@@H]12 [TC, tetracycline hydrochloride]
**Result** 7570
